System: SK-MEL-2 melanoma
Assay: NCI tumour cell line growth inhibition, 48 h
Test readout: GI50

1. C[N+]1=C(/C=C\C=C\c2ccccc2)C(C)(C)c2ccccc21 : 1.69 µM
2. Oc1ccc2oc3ncc(Br)c(-c4ccccc4)c3c2c1 : > 100 µM
3. O=C1CCc2c(sc3[nH]c(=S)n(Cc4ccc(Cl)cc4)c(=O)c23)C1 : 2.07 µM
4. NCCCNCCCCNC(=O)C(O)NC(=O)CCCCCCN=C(N)N (configuration not stated) : 2040 µM
5. CN(C)CCCNC(=O)c1cc(NC(=O)c2cc(NC(=O)CCNS(=O)(=O)c3ccc4c(c3)C(=O)c3ccccc3C4=O)cn2C)cn1C : > 100 µM
6. COc1cc(-c2nc(SCCC(C)C)nc(Nc3ccc(S(N)(=O)=O)cc3)c2C#N)cc(OC)c1OC : 2.47 µM
7. C#CCOc1cccc(Nc2ncnc3cc(NC(=O)CCl)ccc23)c1 : 12.4 µM
8. CCN(CC)c1ccc(C(=O)c2ccc(N(CC)CC)cc2)cc1 : 0.493 µM
9. C=C1CC2(OC1=O)C(=O)Nc1ccccc12 (configuration not stated) : 13.4 µM
10. C=C1C(=O)O[C@H]2[C@H]1CC/C(Cn1cc(-c3ccccc3C(F)(F)F)nn1)=C\CC[C@@]1(C)O[C@@H]21 : 2.45 µM
11. O=C1c2ccccc2-c2c1c1ccccc1c(=O)n2CCCn1ccnc1 : 7.78 µM
12. O=C(OC[C@H]1O[C@H](OC(=O)c2cc(O)c(O)c(OC(=O)c3cc(O)c(O)c(O)c3)c2)[C@H](OC(=O)c2cc(O)c(O)c(OC(=O)c3cc(O)c(O)c(O)c3)c2)[C@@H](OC(=O)c2cc(O)c(O)c(OC(=O)c3cc(O)c(O)c(O)c3)c2)[C@@H]1OC(=O)c1cc(O)c(O)c(OC(=O)c2cc(O)c(O)c(O)c2)c1)c1cc(O)c(O)c(OC(=O)c2cc(O)c(O)c(O)c2)c1 : 9.02 µM

====

// TGI lookup, one value per entry
Tested on: DMS 114 small cell lung
Assay: NCI tumour cell line growth inhibition, 48 h
Test readout: TGI

1. Cc1cc(C)c(-n2c(-c3ccc(Br)cc3)cs/c2=N\N=C2C=C(C(C)(C)C)C(=O)C(C(C)(C)C)=C2)c(C)c1 : > 100 µM
2. Cc1cc2c([nH]c3ccccc32)c2c1OC(C)(C)C1C3CC(C)(C)Oc4c(C)cc5c6ccccc6n(c5c43)C21 (stereo not given) : > 100 µM
3. CN1C(=O)C2C(C1=O)C1(O)c3ccccc3C2(N)c2ccccc21 (stereo not given) : > 100 µM
4. CCCSS[C@H]1NC(=O)[C@H]1NC(=O)COc1ccccc1 : 34.5 µM
5. Cn1cc(C(=O)C[n+]2ccccc2)c2ccccc21 : > 100 µM

====

Test system: NCI-H522 lung
Test: NCI tumour cell line growth inhibition, 48 h
Test readout: log10 of TGI (log10 of the value in µM)

1. N#C/C(=C\c1ccc(Br)cc1)n1nnc2ccc(F)cc21 : -0.07
2. COc1cc2c(cc1OC)/C(=C\c1ccccc1N)C(=O)OC2 : 0.54
3. N#Cc1ccc(-n2c3ccccc3c3ccc4c(c32)C(=O)C=CC4=O)cc1 : 0.08
4. O=C1C[C@@H]2/C(=C(O)\C=C\c3ccccc3)C(=O)C=C[C@@H]2O1 : -0.21
5. Cn1cc(-c2ccc(-c3ccc(C4=NC5(CC5)C(=O)N4C[C@@H]4CCN(C(=O)C5CC5)C4)cc3)cc2)cn1 : 1.61
6. O=[N+]([O-])c1cc(-c2nc(-c3ccccc3)c(-c3ccccc3)[nH]2)c(O)c([N+](=O)[O-])c1 : 1.80
7. OCCNCNc1nc(NCNCCO)nc(N(CNCCO)CNCCO)n1 : 1.62
8. COc1ccc2nc(-c3ccc(O)cc3)sc2c1 : 1.49

Data origin, for the record: PubChem BioAssay (NCI)
